- EXPERIMENTAL TARGET: human A2A receptor (Homo sapiens)
- Sequence (P29274 whole entry): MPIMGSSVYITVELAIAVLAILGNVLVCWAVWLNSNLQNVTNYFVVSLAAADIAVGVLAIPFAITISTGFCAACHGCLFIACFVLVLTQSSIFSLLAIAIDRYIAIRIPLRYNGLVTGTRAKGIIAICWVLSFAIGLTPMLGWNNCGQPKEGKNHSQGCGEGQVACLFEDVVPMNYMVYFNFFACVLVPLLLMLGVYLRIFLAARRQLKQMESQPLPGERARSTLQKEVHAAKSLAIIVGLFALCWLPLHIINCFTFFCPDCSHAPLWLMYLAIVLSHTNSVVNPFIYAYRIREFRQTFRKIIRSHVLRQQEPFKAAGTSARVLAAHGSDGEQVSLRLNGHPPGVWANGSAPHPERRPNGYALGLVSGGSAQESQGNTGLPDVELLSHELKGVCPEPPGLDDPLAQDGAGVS
- ASSAY TEXT: functional cAMP (HTRF) assay, recombinant HEK293 cells expressing human A2A receptor, agonist NECA
pIC50: −log10 of the molar value.

COMPOUND: COc1ccc(-c2ccnc3[nH]ccc23)c2[nH]c(NC(=O)N3CCC(C)(O)CC3)nc12 [compound 270]
pIC50: > 7.00
//
COMPOUND: COc1ccc(C2CCOCC2)c2nc(NC(=O)c3ccc(CN(C)C)cc3)[nH]c12 [compound 88]
pIC50: > 8.00
//
COMPOUND: COc1ccc(-c2cnn(C)c2)c2nc(NC(=O)N3CC[C@H](F)C3)[nH]c12 [compound 221]
pIC50: > 8.00
//
COMPOUND: COc1ccc(-c2ccncc2)c2nc(NC(=O)c3ccc(CN(C)C)cc3)[nH]c12 [compound 89]
pIC50: > 7.00
//
COMPOUND: COc1ccc(-c2ccccc2)c2nc(NC(=O)c3ccc(CCl)cc3)[nH]c12 [compound 10]
pIC50: > 8.00
//
COMPOUND: COc1ccc(-c2cccc3c2CCN3)c2nc(NC(=O)N3CCC(C)(O)CC3)[nH]c12 [compound 292]
pIC50: > 7.00
//
COMPOUND: COc1cc(F)c(C2=CCOCC2)c2nc(NC(=O)c3ccc(C(=O)N(C)C)cc3)[nH]c12 [compound 262]
pIC50: > 8.00
//
COMPOUND: COc1ccc(-c2ccccc2)c2nc(NC(=O)N3CCC(C)CC3)[nH]c12 [compound 28]
pIC50: > 8.00
//
COMPOUND: COc1ccc(-c2ccccc2F)c2nc(NC(=O)N3CCC(C)(O)CC3)[nH]c12 [compound 218]
pIC50: > 8.00
//
COMPOUND: COc1ccc(-c2ccc3c(cnn3C)c2)c2nc(NC(=O)N3CCC(C)(O)CC3)[nH]c12 [compound 273]
pIC50: > 7.00
//
COMPOUND: COc1ccc(-c2cnn(C)c2)c2nc(NC(=O)c3ccc(OC(F)(F)F)cc3)[nH]c12 [compound 94]
pIC50: > 8.00
//
COMPOUND: COc1ccc(-c2cnn(C3CCOC3)c2)c2nc(NC(=O)N3CCC(C)(O)CC3)[nH]c12 (centres unmarked) [compound 241]
pIC50: > 7.00
//
COMPOUND: COc1ccc(-c2cccc(F)c2)c2nc(NC(=O)c3cnn(C)c3)[nH]c12 [compound 239]
pIC50: > 8.00
//
COMPOUND: COc1ccc(-c2ccccc2)c2nc(NC(=O)c3cn(C)nc3C)[nH]c12 [compound 269]
pIC50: > 7.00
//
COMPOUND: COc1ccc(-c2ccccc2)c2nc(NC(=O)c3cnc4ccccn34)[nH]c12 [compound 286]
pIC50: > 7.00
//
COMPOUND: COCCOc1cccc(-c2ccc(OC)c3nc(NC(=O)c4c[nH]cn4)[nH]c23)c1 [compound 267]
pIC50: > 8.00
//
COMPOUND: COc1ccc(C2CCOCC2)c2nc(NC(=O)c3ccnc(N4CC[C@@]5(CCOC5)C4)c3)[nH]c12 [compound 153]
pIC50: > 8.00
//
COMPOUND: COc1ccc(C2CCOCC2)c2nc(NC(=O)c3ccc4c(c3)CCO4)[nH]c12 [compound 108]
pIC50: > 8.00
//
COMPOUND: COc1ccc(-c2ccccc2)c2[nH]c(NC(=O)c3ccc(C(=O)NCCO)cc3)nc12 [compound 312]
pIC50: > 8.00
//
COMPOUND: COc1ccc(-c2ccccc2)c2[nH]c(NC(=O)c3ccc(C(=O)N4CCOCC4)cc3)nc12 [compound 298]
pIC50: > 7.00
//
COMPOUND: COc1ccc(C2=CCOC2)c2nc(NC(=O)c3ccc(C(=O)N(C)C)cc3)[nH]c12 [compound 261]
pIC50: > 8.00
//
COMPOUND: COc1ccc(N2CCOCC2)c2nc(NC(=O)c3ccc(O)c(N)c3)[nH]c12 [compound 99]
pIC50: > 8.00
//
COMPOUND: COc1ccc(-c2cnn(C)c2)c2nc(NC(=O)c3ccc(CN(C)C)cc3)[nH]c12 [compound 48]
pIC50: > 8.00
//
COMPOUND: COc1ccc(-c2cnn(C)c2)c2nc(NC(=O)c3ccc(CN4CCOCC4)cc3)[nH]c12 [compound 152]
pIC50: > 7.00
//
COMPOUND: COc1ccc(-c2cnn(C)c2)c2nc(NC(=O)NCc3nccs3)[nH]c12 [compound 247]
pIC50: > 7.00
//
COMPOUND: COc1ccc(N2CCCOCC2)c2nc(NC(=O)c3ccc(C(=O)N(C)C)cc3)[nH]c12 [compound 313]
pIC50: > 8.00
//
COMPOUND: COc1ccc(C2CCOCC2)c2nc(NC(=O)c3ccc(CN4CCCC4=O)cc3)[nH]c12 [compound 138]
pIC50: > 8.00
//
COMPOUND: CCCC1(c2ccc(OC)c3[nH]c(NC(=O)c4cnn(C)c4)nc23)CC1 [compound 232]
pIC50: > 7.00
//
COMPOUND: COc1ccc(N2CCOCC2)c2nc(NC(=O)c3cnn(C(CO)CCl)c3)[nH]c12 (centres unmarked) [compound 86]
pIC50: > 8.00
//
COMPOUND: COc1ccc(-c2cccnc2)c2nc(NC(=O)c3ccc(C(=O)N(C)C)cc3)[nH]c12 [compound 259]
pIC50: > 8.00
//
COMPOUND: CCCC(CC)c1ccc(OC)c2[nH]c(NC(=O)c3cnn(C)c3)nc12 (centres unmarked) [compound 233]
pIC50: > 7.00
//
COMPOUND: COc1ccc(-c2ccccc2)c2nc(NC(=O)N3CCC(F)(F)CC3)[nH]c12 [compound 287]
pIC50: > 7.00
